Origin of values: patent US5686486A

Kindly state inhibition at 3.3 µM for each of the entries shown.
target: HIV-1 protease (Human immunodeficiency virus type 1 group M subtype B, UniProt P04585); experiment: biochemical; settings: dose 3.300 uM; read-out: HIV-1 Protease % Inhib
One number for each entry, in %.

CC(C)(C)OC(=O)NCc1ccc(C(c2c(O)c3c(oc2=O)CCCCCC3)C2CC2)o1 (stereo not shown)    19.2
O=c1oc2c(c(O)c1C(c1ccccc1)C1CC1)CCCCC2CC1CCOC1 (stereo not shown)    93.3

Go through the items and report each one's inhibition at 3.3 µM.
1. O=c1oc2c(c(O)c1C(c1ccccc1)C1CC1)CCCCC2CC1CCCCO1 (stereo not shown)
2. CCC(c1cccc(N)c1)c1c(O)c2c(oc1=O)CCCCCC2 (stereo not shown)

Result:
[79.3, 65.2]
